These measurements were taken from patent US20230235004A1.

TGT: T1, human MAdCAM protein (human, UniProt Q13477 19-317, limits assumed)
T1 construct: also called soluble monomeric human MAdCAM; recombinant human MAdCAM
T1 sequence (looked up): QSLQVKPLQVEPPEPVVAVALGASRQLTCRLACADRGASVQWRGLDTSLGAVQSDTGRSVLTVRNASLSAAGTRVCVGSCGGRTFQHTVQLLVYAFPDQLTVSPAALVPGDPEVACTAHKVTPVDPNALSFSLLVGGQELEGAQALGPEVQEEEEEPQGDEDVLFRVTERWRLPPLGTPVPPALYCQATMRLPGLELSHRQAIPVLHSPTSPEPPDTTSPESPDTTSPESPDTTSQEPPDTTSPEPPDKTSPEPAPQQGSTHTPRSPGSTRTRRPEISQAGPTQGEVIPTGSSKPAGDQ
ASSAY: Octet
PROPERTY NAME: binding result

{"BINDER": "MAdCAM Antibody Table 2 clone 60 (antibody, V domains shown, IgG format) VH: EVQLLESGGGLVQPGGSLRLSCAASGFTFSDHGMHWVRQAPGKGLEWVSVIYGGESTYYADSVKGRFTISRDNSKNTLYLQMNSLRAEDTAVYYCARDPAVAGGGIFDYWGQGTLVTVSS VL: DIQMTQSPSSLSASVGDRVTITCRASQGISNYLAWYQQKPGKAPKLLIYDASNLETGVPSRFSGSGSGTDFTLTISSLQPEDFATYYCQQSYSTCYTFGQGTKLEIK", "OBSERVED RESULT": "binds"}
{"BINDER": "MAdCAM Antibody Table 2 clone 75 (antibody, V domains shown, IgG format) VH: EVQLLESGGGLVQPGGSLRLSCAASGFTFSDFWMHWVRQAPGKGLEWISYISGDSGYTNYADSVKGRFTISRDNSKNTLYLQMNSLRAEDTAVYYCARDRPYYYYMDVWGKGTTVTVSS VL: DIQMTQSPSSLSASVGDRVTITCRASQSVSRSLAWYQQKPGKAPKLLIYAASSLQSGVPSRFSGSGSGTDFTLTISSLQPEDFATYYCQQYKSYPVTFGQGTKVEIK", "OBSERVED RESULT": "binds"}
{"BINDER": "MAdCAM Antibody Table 2 clone 11 (antibody, V domains shown, IgG format) VH: EVQLLESGGGLVQPGGSLRLSCAASGFTFSDYYMNWVRQAPGKGLEWVSVIGESGGSTYYADSVKGRFTISRDNSKNTLYLQMNSLRAEDTAVYYCAADPVSRWPKHGGGDYWGQGTLVTVSS VL: DIQMTQSPSSLSASVGDRVTITCRASQGISSSLAWYQQKPGKAPKLLIYAASTLQSGVPSRFSGSGSGTDFTLTISSLQPEDFATYYCQQSYSTPWTFGQGTKVEIK", "OBSERVED RESULT": "binds"}
